Source listed as ChEMBL document CHEMBL1126061.

experimental.target: Integrin alpha-IIb/beta-3 (Homo sapiens, UniProt P05106+P08514)
Sequence (P05106 27-788 limits assumed): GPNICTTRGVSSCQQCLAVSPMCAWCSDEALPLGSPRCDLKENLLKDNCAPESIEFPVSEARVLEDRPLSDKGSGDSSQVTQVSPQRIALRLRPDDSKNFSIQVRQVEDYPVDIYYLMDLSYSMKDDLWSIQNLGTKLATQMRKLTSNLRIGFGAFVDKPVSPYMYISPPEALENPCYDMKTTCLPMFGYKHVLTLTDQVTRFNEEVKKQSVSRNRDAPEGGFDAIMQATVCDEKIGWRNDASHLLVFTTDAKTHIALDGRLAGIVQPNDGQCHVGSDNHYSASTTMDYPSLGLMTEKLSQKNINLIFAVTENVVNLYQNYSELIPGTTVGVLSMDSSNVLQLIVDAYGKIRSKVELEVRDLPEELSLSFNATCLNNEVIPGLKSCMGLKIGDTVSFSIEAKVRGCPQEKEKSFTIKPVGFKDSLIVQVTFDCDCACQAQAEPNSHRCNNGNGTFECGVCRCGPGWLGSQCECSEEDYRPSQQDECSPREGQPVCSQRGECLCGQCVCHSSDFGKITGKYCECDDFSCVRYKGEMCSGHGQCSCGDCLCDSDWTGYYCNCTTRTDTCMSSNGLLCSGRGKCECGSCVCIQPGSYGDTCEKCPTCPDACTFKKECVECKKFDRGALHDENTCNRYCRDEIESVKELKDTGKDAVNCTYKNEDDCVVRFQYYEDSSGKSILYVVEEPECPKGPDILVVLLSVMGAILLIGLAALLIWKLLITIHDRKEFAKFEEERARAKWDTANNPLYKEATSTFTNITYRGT
Sequence (P08514 32-887 limits assumed): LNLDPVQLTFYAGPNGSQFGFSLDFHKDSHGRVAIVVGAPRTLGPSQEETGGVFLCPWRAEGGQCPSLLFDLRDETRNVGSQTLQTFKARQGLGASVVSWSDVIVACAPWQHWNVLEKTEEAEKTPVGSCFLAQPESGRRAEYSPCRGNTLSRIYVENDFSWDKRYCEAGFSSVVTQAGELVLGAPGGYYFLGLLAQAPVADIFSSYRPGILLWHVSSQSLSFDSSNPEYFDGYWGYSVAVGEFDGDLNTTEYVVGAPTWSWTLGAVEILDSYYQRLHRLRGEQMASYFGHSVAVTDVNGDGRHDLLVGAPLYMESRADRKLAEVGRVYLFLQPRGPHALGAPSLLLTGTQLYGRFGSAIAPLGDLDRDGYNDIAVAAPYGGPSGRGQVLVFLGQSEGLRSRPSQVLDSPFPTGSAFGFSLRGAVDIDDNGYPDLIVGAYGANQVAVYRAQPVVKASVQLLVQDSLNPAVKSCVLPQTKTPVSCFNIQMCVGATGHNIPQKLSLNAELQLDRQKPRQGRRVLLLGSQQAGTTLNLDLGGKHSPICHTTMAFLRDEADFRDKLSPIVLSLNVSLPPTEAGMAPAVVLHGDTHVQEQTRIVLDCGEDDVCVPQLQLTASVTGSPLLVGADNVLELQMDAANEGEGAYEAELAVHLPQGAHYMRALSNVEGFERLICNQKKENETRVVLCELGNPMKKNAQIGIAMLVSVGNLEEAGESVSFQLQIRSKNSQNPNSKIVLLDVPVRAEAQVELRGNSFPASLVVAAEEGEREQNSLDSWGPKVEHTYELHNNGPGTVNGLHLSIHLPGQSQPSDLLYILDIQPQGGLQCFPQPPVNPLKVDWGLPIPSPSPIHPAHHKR
Sequence (P08514 891-1039 limits assumed): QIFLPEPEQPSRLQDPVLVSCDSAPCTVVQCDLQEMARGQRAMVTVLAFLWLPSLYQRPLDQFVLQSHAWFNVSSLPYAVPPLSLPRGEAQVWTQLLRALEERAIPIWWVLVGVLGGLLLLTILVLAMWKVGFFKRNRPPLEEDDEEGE
experimental.details: The compound was tested for the inhibition of fibrinogen receptor
Assay type: protein-complex assay
Where a SMILES comes first, the peptide text is derived from it. Bridges are numbered along the chain shown (N, C = ends). [ ]: non-standard residue; d: D form.
quantity.measured: IC50 (nM)

1 = N=C(N)NCCC[C@@H]1NC(=O)CNC(=O)C[S+]([O-])C[C@@H](C(=O)O)NC(=O)[C@H](CC(=O)O)NC(=O)CNC1=O (stereo in doubt; 66A)
2 = N=C(N)NCCC[C@@H]1NC(=O)[C@H](Cc2c[nH]c3ccccc23)NC(=O)CSC[C@@H](C(=O)O)NC(=O)[C@H](CC(=O)O)NC(=O)CNC1=O
Incoming: Just curious, which one has the larger IC50 reading, 1 or 2 ? // output: label of the selected item
Outgoing: 2
(2: 4 nM, 1: 1.4 nM)

1 = C[C@H]1NC(=O)CSC[C@@H](C(=O)O)NC(=O)[C@H](CC(=O)O)NC(=O)CNC(=O)[C@H](CCCNC(=N)N)NC1=O ({CH2CO}-[dA]RGDC-OH; thioether N-5)
2 = N=C(N)NCCC[C@@H]1NC(=O)CNC(=O)C(c2ccccc2C(F)(F)F)SC[C@@H](C(=O)O)NC(=O)[C@H](CC(=O)O)NC(=O)CNC1=O (stereo in doubt; 20A)
Incoming: Among 1 and 2 , whose measured IC50 is the smaller figure? // output: label of the selected item
Outgoing: 1

A = N=C(N)NCCC[C@@H]1NC(=O)CNC(=O)C(c2ccc3ccccc3c2)SC[C@@H](C(=O)O)NC(=O)[C@H](CC(=O)O)NC(=O)CNC1=O (stereo in doubt; 21A)
B = N=C(N)NCCC[C@@H]1NC(=O)CNC(=O)[C@@H](Cc2ccccc2)SC[C@@H](C(=O)O)NC(=O)[C@H](CC(=O)O)NC(=O)CNC1=O
Incoming: Just curious, which one has the larger IC50 reading, A or B ? // output: label of the selected item
Outgoing: B
(B: 29 nM, A: 11.5 nM)
